Experiment: Inhibition of FLT3 ITD-W51 mutant (unknown origin) incubated for 120 mins by ADP-glo based luminescence assay
Design: species or system Homo sapiens
PARAMETER MEASURED: pKi
Kindly note that pKi refers to -log10 of the concentration in mol/L and answer with the value alone.

## Task Requested field: pKi. Item: CC(=O)N1CCN(c2ccc(Nc3nccc(-c4cn(C)c5ncccc45)n3)cc2)CC1
## Result 7.08

----------
System: MV4-11
Assay: Antiproliferative activity against human MV4-11 cells incubated for 72 hrs by resazurin assay
Type: functional
PARAMETER MEASURED: GI50 (nM)

Recorded GI50, per entry:
[[record]]
structure_smiles = "CC(=O)N1CCCN(c2cccc(Nc3nccc(-c4cnc5n(C)cccc4-5)n3)c2)CC1"
readout_value = 24

[[record]]
structure_smiles = "CC(=O)N1CCN(c2ccc(Nc3nccc(-c4cn(C)c5ncccc45)n3)cc2)CC1"
readout_value = 74

[[record]]
structure_smiles = "CC(=O)N1CCN(c2ccc(Nc3ncc(C#N)c(-c4c(C)[nH]c5ccccc45)n3)cc2)CC1"
readout_value = 390

[[record]]
structure_smiles = "CC(=O)N1CCCN(c2cccc(Nc3nccc(-c4n[nH]c5ccccc45)n3)c2)CC1"
readout_value = 18

[[record]]
structure_smiles = "CC(=O)N1CCN(c2ccc(Nc3nccc(-c4n[nH]c5ccccc45)n3)cc2)CC1"
readout_value = 346


(a) CC(=O)N1CCN(c2ccc(Nc3ncc(C#N)c(-c4cn(C)c5ccccc45)n3)cc2)CC1
(b) CC(=O)N1CCN(c2ccc(Nc3ncc(C#N)c(-c4c[nH]c5ccccc45)n3)cc2)CC1
## Task Determine, for a and b , which has the greater value of GI50. Answer = label.
## Result a
(a: 30 nM, b: 4 nM)

(I) CCc1nc(C(N)=O)c(Nc2ccc(N3CCC(N4CCN(C)CC4)CC3)c(OC)c2)nc1NC1CCOCC1
(II) CC(=O)N1CCN(c2ccc(Nc3ncc(C#N)c(-c4n[nH]c5ccccc45)n3)cc2)CC1
## Task Consider entries I and II . Which has the numerically lower GI50? Answer by stating the label of the chosen item.
## Result I

(I) CC(=O)N1CCN(c2ccc(Nc3nccc(-c4c[nH]c5ccccc45)n3)cc2)CC1
(II) CC(=O)N1CCN(c2ccc(Nc3nccc(-c4cn(C)c5ccccc45)n3)cc2)CC1
(III) CN1CCN(c2cccc(Nc3nccc(-c4c[nH]c5cccnc45)n3)c2)CC1
(IV) CC(=O)N1CCCN(c2cccc(Nc3nccc(-c4c[nH]c5cccnc45)n3)c2)CC1
## Task Please list these molecules in decreasing order of GI50. Write the labels in rank order as requested.
## Result IV, III, II, I

----------
Target: Receptor-type tyrosine-protein kinase FLT3 (Homo sapiens, UniProt P36888, F594-R595INSR)
Assay: Inhibition of FLT3 F594_R595insR mutant (unknown origin) incubated for 120 mins by ADP-glo based luminescence assay
PARAMETER MEASURED: Ki (nM)
Report the figure in nM without appending any unit label.

## Task So what's the measured Ki for this one? CC(=O)N1CCN(c2ccc(Nc3nccc(-c4cn(C)c5ncccc45)n3)cc2)CC1
## Result 54

----------
Target: UniProt:P36888
Sequence (P36888 whole entry): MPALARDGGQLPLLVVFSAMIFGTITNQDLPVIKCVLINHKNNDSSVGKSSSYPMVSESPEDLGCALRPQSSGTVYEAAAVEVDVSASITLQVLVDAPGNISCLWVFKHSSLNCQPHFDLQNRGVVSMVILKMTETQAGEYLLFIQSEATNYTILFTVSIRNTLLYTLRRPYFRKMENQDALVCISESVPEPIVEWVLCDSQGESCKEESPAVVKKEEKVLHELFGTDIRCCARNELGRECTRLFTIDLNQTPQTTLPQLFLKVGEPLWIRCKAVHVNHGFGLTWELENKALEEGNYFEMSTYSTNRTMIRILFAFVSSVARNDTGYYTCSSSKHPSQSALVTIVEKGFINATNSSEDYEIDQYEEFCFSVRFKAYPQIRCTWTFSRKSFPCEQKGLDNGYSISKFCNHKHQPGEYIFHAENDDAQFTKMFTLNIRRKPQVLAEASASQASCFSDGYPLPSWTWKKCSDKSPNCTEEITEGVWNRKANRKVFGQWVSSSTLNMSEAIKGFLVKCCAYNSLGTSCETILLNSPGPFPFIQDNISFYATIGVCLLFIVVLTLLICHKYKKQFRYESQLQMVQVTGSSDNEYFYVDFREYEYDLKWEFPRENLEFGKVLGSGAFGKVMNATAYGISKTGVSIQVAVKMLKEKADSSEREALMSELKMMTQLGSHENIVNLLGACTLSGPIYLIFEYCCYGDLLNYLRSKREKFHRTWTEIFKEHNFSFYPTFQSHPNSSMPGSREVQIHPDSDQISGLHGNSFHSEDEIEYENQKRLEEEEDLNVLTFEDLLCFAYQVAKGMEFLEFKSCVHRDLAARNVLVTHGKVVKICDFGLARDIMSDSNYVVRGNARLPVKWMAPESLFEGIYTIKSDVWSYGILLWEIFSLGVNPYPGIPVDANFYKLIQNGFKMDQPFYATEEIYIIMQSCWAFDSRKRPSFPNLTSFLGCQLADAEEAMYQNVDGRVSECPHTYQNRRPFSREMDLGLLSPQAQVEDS
pKi: −log10 of the molar value.
PARAMETER MEASURED: pKi

[[record]]
structure_smiles = "CC(=O)N1CCCN(c2cccc(Nc3nccc(-c4n[nH]c5ccccc45)n3)c2)CC1"
readout_value = 9.00

[[record]]
structure_smiles = "CC(=O)N1CCN(c2ccc(Nc3nccc(-c4cn(C)c5ccccc45)n3)cc2)CC1"
readout_value = 6.83

[[record]]
structure_smiles = "CC(=O)N1CCN(c2ccc(Nc3ncc(C#N)c(-c4c[nH]c5ccccc45)n3)cc2)CC1"
readout_value = 8.40


(1) CC(=O)N1CCN(c2ccc(Nc3ncc(C#N)c(-c4c(C)[nH]c5ccccc45)n3)cc2)CC1
(2) CC(=O)N1CCCN(c2cccc(Nc3nccc(-c4cnc5n(C)cccc4-5)n3)c2)CC1
(3) CN1CCN(c2cccc(Nc3nccc(-c4c[nH]c5ncccc45)n3)c2)CC1
(4) CC(=O)N1CCN(c2ccc(Nc3nccc(-c4c[nH]c5cccnc45)n3)cc2)CC1
(5) CC(=O)N1CCN(c2ccc(Nc3nccc(-c4cn(C)c5ncccc45)n3)cc2)CC1
## Task # rank_down: sort by pKi, max first Form entry: labels listed in requested order.
## Result 2, 3, 5, 4, 1

(1) CC(=O)N1CCN(c2ccc(Nc3nccc(-c4c[nH]c5ncccc45)n3)cc2)CC1
(2) CC(=O)N1CCN(c2ccc(Nc3ncc(C#N)c(-c4cn(C)c5ccccc45)n3)cc2)CC1
## Task Between 1 and 2 , which one shows the larger pKi value? # reply format: chosen label
## Result 1
(1: 9.10, 2: 7.43)

----------
Experiment: Inhibition of FLT3 ITD-NPOS mutant (unknown origin) incubated for 120 mins by ADP-glo based luminescence assay
Design: species or system Homo sapiens
PARAMETER MEASURED: Ki (µM)
Number only, in µM; omit the unit.

## Task Requested field: Ki. Item: CC(=O)N1CCN(c2ccc(Nc3nccc(-c4cn(C)c5ncccc45)n3)cc2)CC1
## Result 0.262

----------
Tested on: MV4-11
Assay: Antiproliferative activity against human MV4-11 cells incubated for 72 hrs by resazurin assay
Assay type: functional
PARAMETER MEASURED: GI50 (nM)

[[record]]
structure_smiles = "CN1CCN(c2cccc(Nc3nccc(-c4cn(C)c5ncccc45)n3)c2)CC1"
unit_descriptor = "nM"
readout_value = 24


(a) CC(=O)N1CCN(c2ccc(Nc3nccc(-c4cn(S(=O)(=O)c5ccc(C)cc5)c5ccccc45)n3)cc2)CC1
(b) CC(=O)N1CCN(c2ccc(Nc3nccc(-c4c[nH]c5cccnc45)n3)cc2)CC1
(c) CN1CCN(c2cccc(Nc3nccc(-c4c[nH]c5ncccc45)n3)c2)CC1
(d) CC(=O)N1CCCN(c2cccc(Nc3nccc(-c4c[nH]c5ncccc45)n3)c2)CC1
## Task Please list these in order of increasing GI50. Thank you! Response format: the labels, sorted as the prompt asks.
## Result c, d, b, a
(c: 5 nM, d: 20 nM, b: 420 nM, a: 1560 nM)

----------
Target: Receptor-type tyrosine-protein kinase FLT3 (Homo sapiens, UniProt P36888, ITD)
Assay: Inhibition of FLT3 ITD mutant (unknown origin) using Glu/Tyr peptide substrate incubated for 80 mins measured after 40 mins incubation under dark by ADP-glo based luminescence assay
pKi: −log10 of the molar value.
PARAMETER MEASURED: pKi

Worked examples follow.
[[record]]
structure_smiles = "CC(=O)N1CCN(c2ccc(Nc3nccc(-c4n[nH]c5ccccc45)n3)cc2)CC1"
parameter_measured = "pKi"
readout_value = 6.68

[[record]]
structure_smiles = "CC(=O)N1CCN(c2ccc(Nc3ncc(C#N)c(-c4cn(C)c5ccccc45)n3)cc2)CC1"
parameter_measured = "pKi"
readout_value = 8.15

[[record]]
structure_smiles = "CN1CCN(c2cccc(Nc3nccc(-c4c[nH]c5cccnc45)n3)c2)CC1"
parameter_measured = "pKi"
readout_value = 7.70

[[record]]
structure_smiles = "CC(=O)N1CCN(c2ccc(Nc3nccc(-c4c[nH]c5cccnc45)n3)cc2)CC1"
parameter_measured = "pKi"
readout_value = 8.40

[[record]]
structure_smiles = "CC(=O)N1CCN(c2ccc(Nc3nccc(-c4c[nH]c5ccccc45)n3)cc2)CC1"
parameter_measured = "pKi"
readout_value = 7.96


(1) CC(=O)N1CCN(c2ccc(Nc3nccc(-c4cn(S(=O)(=O)c5ccc(C)cc5)c5ccccc45)n3)cc2)CC1
(2) CN1CCN(c2cccc(Nc3nccc(-c4cn(C)c5ncccc45)n3)c2)CC1
(3) CC(=O)N1CCCN(c2cccc(Nc3nccc(-c4c[nH]c5ncccc45)n3)c2)CC1
(4) CC(=O)N1CCN(c2ccc(Nc3ncc(C#N)c(-c4n[nH]c5ccccc45)n3)cc2)CC1
## Task Could you please order the items by pKi, going from the lowest number to the highest? Please list the labels according to the requested order.
## Result 1, 2, 4, 3
(1: 6.89, 2: 7.89, 4: 9.70, 3: 10.00)

Origin of values: ChEMBL document CHEMBL4813946
